test.target: MARK4 (Homo sapiens, UniProt Q96L34)
Sequence (Q96L34 59-368): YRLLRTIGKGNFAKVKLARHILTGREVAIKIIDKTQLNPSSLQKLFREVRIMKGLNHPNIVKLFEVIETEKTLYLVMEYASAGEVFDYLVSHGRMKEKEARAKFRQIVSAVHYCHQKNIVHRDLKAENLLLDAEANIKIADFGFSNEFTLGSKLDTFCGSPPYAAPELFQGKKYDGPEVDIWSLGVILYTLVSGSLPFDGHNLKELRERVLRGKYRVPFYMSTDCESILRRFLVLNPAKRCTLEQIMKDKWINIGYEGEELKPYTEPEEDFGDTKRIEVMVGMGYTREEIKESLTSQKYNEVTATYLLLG
Overview of recorded pKd for various compounds
Keep in mind that pKd stands for -log10 of concentration in molar terms.

Some solved cases for reference:
compound	pKd
COc1cc(C(=O)N/N=C2\C(=O)Nc3c(C)cc(C)cc32)ccc1O [VI-5]	4.40
COc1cc(C(=O)N/N=C2\C(=O)Nc3cc(Cl)ccc32)ccc1O [VI-4]	5.95
COc1cc(C(=O)N/N=C2\C(=O)Nc3ccc(C)cc32)ccc1O [VI-2]	6.14
COc1cc(C(=O)N/N=C2\C(=O)Nc3c2cccc3[N+](=O)[O-])ccc1O [VI-8]	4.12
COc1cc(C(=O)N/N=C2\C(=O)Nc3ccc(Br)cc32)ccc1O [VI-7]	5.52
COc1ccc2c(c1)NC(=O)/C2=N\NC(=O)c1ccc(O)c(OC)c1 [VI-13]	7.43

Now for the compound whose pKd we want.
Value wanted: pKd (MARK4 (Homo sapiens, UniProt Q96L34)) of entry COc1ccc2c(c1)/C(=N/NC(=O)c1ccc(O)c(OC)c1)C(=O)N2 [VI-3] 7.35
